// data source = paper PMC9482650

system name: Inadl_8, Q8NI35
Sequence (Q8NI35 1425-1530): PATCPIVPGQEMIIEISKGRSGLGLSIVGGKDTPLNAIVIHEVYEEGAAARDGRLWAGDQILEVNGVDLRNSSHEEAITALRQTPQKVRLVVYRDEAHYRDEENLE
procedure text: holdup assay
Set-up: key: below the threshold = too weak to quantify, mostly under pKd 3.1 to 4
measurement setup: plain residues with an end cap or a label only (N-terminal biotin on a linker: ado-ado)

binder: VRNLPESEEL [MYOZ3, Q8TDC0]
pKd: below the threshold
--
binder: PKRSFIESNV [TANC1, Q9C0D5]
pKd: 4.15
--
binder: LKVPPEERLI [CRB2, Q5IJ48]
pKd: below the threshold
--
binder: LPHPHSTTRV [NLGN2, Q8NFZ4]
pKd: 4.39
--
binder: VNKSKLLTDV [KCNA1, Q09470]
pKd: 3.91
--
binder: NHSSSPETTA [TRMT13, Q9NUP7]
pKd: below the threshold
--
binder: YRLAQESGLV [ABCC6, O95255]
pKd: below the threshold
--
binder: LSEFKAMDSI [CTNNA1, P35221]
pKd: below the threshold
